Origin of values: PubChem BioAssay (NCI)

system: OVCAR-3 ovarian; assay: NCI tumour cell line growth inhibition, 48 h
Measured TGI, listed per entry.

| compound | TGI |
| --- | --- |
| Cc1ccc(S(=O)(=O)c2c3[nH]c4ccccc4nc3n3c2nc2ccccc23)cc1 | > 100 µM |
| O=C(CCCCCCC(=O)Nc1ccc2c(c1)/C(=C/c1ccc[nH]1)C(=O)N2)NO | 5.51 µM |
| COc1cc(-c2oc(C=Nc3ccccc3)c([N+](=O)[O-])c2-c2ccc(O)c(OC)c2)ccc1O | > 100 µM |
| FC(F)(F)C1(C(F)(F)F)O[SiH]2(OC(C(F)(F)F)(C(F)(F)F)c3ccccc32)c2ccccc21 | 40.6 µM |
| COC1=CC(=O)[C@]2(C)[C@H](C1=O)C(C)[C@H]2c1ccccc1 (stereo partly drawn) | > 100 µM |
| CCOC(=O)/C=C/c1c[nH]c(C(=O)OCC)c1 | > 100 µM |
| CC1CC(C)(O)CC(C(O)CC2CC(=O)NC(=O)C2)C1=O (stereo not drawn) | 3.43 µM |
| c1ccc(SC(CCCCOC2CCCCO2)Sc2ccccc2)cc1 (stereo not drawn) | > 100 µM |
| COc1cc(/C=C/C(=O)c2c(C)n([O-])c3ccc(Cl)cc3[n+]2=O)cc(OC)c1OC | > 100 µM |
| COC(=O)CC1(O)C(/C=C/c2ccccc2)C(C(=O)OC)C(=O)C(C(=O)OC)C1C(=O)OC (stereo not drawn) | > 100 µM |
| CC(C)CCCC(C)[C@H]1CC[C@H]2[C@@H]3CC[C@H]4C[C@@H](CCC=C(c5cc(Cl)c(O)c(C(=O)O)c5)c5cc(Cl)c(O)c(C(=O)O)c5)CC[C@]4(C)[C@H]3CC[C@]12C (stereo partly drawn) (tested in a mixture with another compound) | > 50 µM |
| O=C(n1c(=O)n(-c2ccc(Cl)cc2)c(=O)n1C(=O)C(Cl)(Cl)Cl)C(Cl)(Cl)Cl | > 100 µM |
| CC(C)c1nc2c(Cl)c3ncccc3cc2[nH]c1=O | > 100 µM |
| C/C(=N\O)C(CN1CCCCC1)C(c1ccccc1)c1c(O)c2ccccc2oc1=O (stereo not drawn) | > 100 µM |
| OC(CNc1ccnc2cc(Cl)ccc12)CNC1CCCCC1 (stereo not drawn) | 34.7 µM |
| CC(C)C[C@@H]1NC(=O)[C@@H]2CCCN2C(=O)[C@@H]2CCCN2C(=O)[C@H](CC(C)C)NC(=O)[C@H](CO)NC(=O)[C@H](CCCCN)NC(=O)[C@H]([C@H](C)O)NC(=O)[C@@H]2CCCC[C@@H](NC1=O)C(=O)N[C@@H](Cc1ccccc1)C(=O)N1CCC[C@H]1C(=O)N[C@@H](CC(=O)O)C(=O)NCC(=O)N[C@@H](CCCN=C(N)N)C(=O)N2 | > 50 µM |
| Cc1ccc(CCCCCOc2ccc(C3=NCCO3)cc2)s1 | > 100 µM |
| N#C[S-].[Au+].c1ccc(CN2[CH-]N(Cc3ccccc3)C(c3ccccc3)=C2c2ccccc2)cc1 | 1.3 µM |
| Cc1cc(=O)oc2cc(OCc3nc4ccccc4c(=O)[nH]3)ccc12 | > 100 µM |
| CCCCCCCCCC1CC(=O)NCC(=O)NC(C(C)C)C(=O)NC(CC(C)C)C(=O)NC(C)C(=O)NC(C(C)C)C(=O)O1 (stereo not drawn) | 28.8 µM |
| Clc1ccc(-c2nc3ccc(C45CC6CC(CC(C6)C4)C5)cc3[nH]2)cc1 | > 100 µM |
| Cc1ccc(S(=O)(=O)NC2=NS(=O)(=O)c3cc(C)c(Cl)cc3S2)cc1 | > 100 µM |
| CC(=O)N1C2=CCCC2(C)c2ccccc21 (stereo not drawn) | > 100 µM |
| CC12CC3CC(C1)CC(N=[N+]=[N-])(C3)C2 | > 100 µM |
| CCCCCCCCCCCC[n+]1ccc(C(N)=O)cc1 | 8.72 µM |
| CCSC(=O)/C=C1\CN(C(=O)OC(C)(C)C)C1C(=O)OC(C)(C)C (stereo not drawn) | 6.13 µM |
| CC(=O)c1c[nH]cc1CO | > 10 µM |
| CCCN(CCC)C(=O)[C@H](CC)[C@@H]1CC[C@@H](C)[C@@H]([C@H](C)[C@@H](O)[C@@H](C)C(=O)[C@H](CC)C2O[C@]3(C=C[C@@H](O)[C@]4(CC[C@@](C)([C@H]5CC[C@](O)(CC)[C@H](C)O5)O4)O3)[C@H](C)C[C@@H]2C)O1 (stereo partly drawn) | 4.46 µM |
| COc1ccc2nc3ccc(OC)cc3c(SCC3CO3)c2c1 (stereo not drawn) | 28.5 µM |
| CSC1C(=O)c2ccccc2/C(=N/Nc2nc3ccccc3s2)C1C (stereo not drawn) | 17.6 µM |
| CN(C)CCNC(=O)c1cc2c3ccccc3[nH]c2c2ncccc12 | 16.8 µM |
| Cc1cccc2c1C(=O)OC2(C)c1cccc2ccccc12 (stereo not drawn) | 78.8 µM |
| Cc1ccc(C2=C(c3ccccc3)C(Br)(c3ccccc3)C(c3ccccc3)=C2c2ccc(C)cc2)cc1 | > 100 µM |
| c1ccc2c3c([nH]c2c1)C1(CCCCC1)c1c([nH]c2ccccc12)C31CCCCC1 | > 100 µM |
| Clc1ccc(-c2nnc(C34CC5CC(CC(C5)C3)C4)o2)cc1 | > 100 µM |
| C/C(=N/NC(=S)NCCc1ccccn1)c1cnccn1 | > 100 µM |
| O=C(OC(/C=C/c1ccccc1)P1(=O)N(Cc2ccccc2)[C@@H]2CCCC[C@H]2N1Cc1ccccc1)c1ccccc1 (stereo partly drawn) | > 100 µM |
| [C-]#[N+]C1(C(=O)OCC)CC1 | > 100 µM |
